// data source = PubChem BioAssay (NCI)

Listed next: entries and their corresponding growth inhibition.
methodSummary: NCI Yeast Anticancer Drug Screen. Data for the sgs1 mgt1 strain (AID 161);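 note: 0% = growth of cultures given vehicle only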
testParameters: S. cerevisiae sgs1 mgt1 strain, at 50.0 µM, stronger effect = higher value
Compounds without any hit were thinned out: in the full panel of roughly 79,000, 15% have a hit. Active and inactive are the calls of the source. Cut-off read from the data, not from the text of the source: active = growth inhibition above about 70%; inactive = the rest.

| molecule | growth inhibition |
| --- | --- |
| O=C(c1nc2ccccc2[nH]c1=O)C(O)c1ccccc1 (centres undefined) | -3.1% (inactive) |
| Cc1cccc(Cl)c1NC(=O)Nc1ccc(Cl)cc1C(=O)c1ccccc1 | 6.75% (inactive) |
| c1ccc(-c2cccc(-c3cccc(-c4ccccc4)c3)c2)cc1 | 7.5% (inactive) |
| O=C(Nc1cccc(Cl)c1)Oc1cccnc1 | 7.7% (inactive) |

---

methodSummary: NCI Yeast Anticancer Drug Screen. Data for the mlh1 rad18 strain (AID 175)
testParameters: S. cerevisiae mlh1 rad18 strain growth inhibition; at 50.0 µM; stronger effect = higher value
About 79,000 compounds went through this panel and 15% of them were active in at least one assay; those are over-represented in the sample as a whole.
Listed here: items and their measured growth inhibition.

| molecule | growth inhibition, % |
| --- | --- |
| C=CCNc1ccc(C)cc1 | 20.4 |
| C[N+]12CCCCC1CC2 (configuration not stated) | 9.85 |
| C=C(C)[C@@H]1CC=C(CO)CC1 | 8.4 |
| CC(=O)Nc1c(C(N)=O)cnn1-c1ccccc1 | 36.9 |
| CC1(C)N=C(N)N=C(N)N1CCCCc1ccccc1 | -16.6 |
| CC1CCCCC[N+]1(C)CCO (configuration not stated) | -4.8 |
| CN(C(=O)c1ccc(Cl)cc1)C(=S)N1CCN(c2ccccn2)CC1 | -43.5 |
| O=C(O)c1ccc([N+](=O)[O-])cc1C(=O)c1cccs1 | -0.05 |
| c1ccc(C2=NCCc3cc4c(cc32)OCO4)cc1 | 9.4 |
| CCCCN(CCCC)CCC(O)c1cc(-c2ccc(C(F)(F)F)cc2)nc(-c2ccc(C(F)(F)F)cc2)c1 (configuration not stated) | -41.2 |
| Nc1cc2cn[nH]c2cc1N | 25.6 |
| CSc1ccc([C@@H](O)[C@H](CO)NC(=O)C(Cl)Cl)cc1 | 47.6 |
| CC1(C)C(=NNC(=O)C[N+](C)(C)C)C(C)(C)C1=NNC(=O)C[N+](C)(C)C | -13.5 |
| COC(=O)N/N=C/c1cccc(C)n1 | -11.6 |
| O=[N+]([O-])c1cccc2c(-c3nccc4c([N+](=O)[O-])cccc34)nccc12 | -19 |
| CN(C)c1nc(O)cc(=O)[nH]1 | 25.3 |
| CCC(CC)C(=O)NC(O)C(Cl)(Cl)C(C)Cl (configuration not stated) | 14.6 |

---

methodSummary: NCI Yeast Anticancer Drug Screen. Data for the mec2-1 strain (AID 157)
testParameters: S. cerevisiae mec2-1 strain, at 50.0 µM, stronger effect = higher value
The panel holds about 79,000 compounds, 15% with a hit somewhere; the sample as a whole holds those more often.

| molecule | growth inhibition [%] |
| --- | --- |
| Nc1c2ccccc2nc2c(C(=O)Nc3ccc(S(N)(=O)=O)cc3)cccc12 | -8.9 |
| CC(=O)NC(=O)CCc1ccccc1 | -12.7 |
| O=C(O)c1ccccc1C(NC(=O)N1C(=O)C=CC1=O)NC(=O)N1C(=O)C=CC1=O | -5.1 |
| CCN(CC)C(=O)COc1ccc(Cl)cc1 | -7.75 |
| CCOC(=O)N1CCN(P(=O)(c2ccccc2)N2CCN(C(=O)OCC)CC2)CC1 | -28.4 |
| O=C(O)C(C(=O)O)C(O)c1c2ccccc2cc2ccccc12 (stereo unspecified) | 16 |
| O=CC(Cc1ccccc1)C(=O)CCc1ccccc1.[Cu+2] (stereo unspecified) | 13.9 |
| Cc1cc(N(CCC#N)CCC#N)ccc1/C=C(\N=[N+]=[N-])C(=O)NC(=O)COc1ccccc1 | -19.8 |
| CC(=N\N=C(N)N)/C(N=Nc1ccc(S(N)(=O)=O)cc1)=N\N=C(N)N | 5.55 |
| Cc1cc(C)nc(NS(=O)(=O)c2ccc(NC(=O)C(Cl)(Cl)Cl)cc2)n1 | -24.6 |
| NC(=NC1CCCCC1)c1ccc(C(=O)OCC2CCCCC2)cc1 | 12.6 |
| C=C1C(=O)OC2CC3(C)C=CC(=O)C(=C)C3CC12 (stereo unspecified) | 20.6 |
| CCC(C)(O)P(=O)(O)O (stereo unspecified) | 7.1 |
| CC1=CC(=O)Nc2ccccc2S1 | 29.2 |
| CC(C)C1OCC(CO)([N+](=O)[O-])CO1 (stereo unspecified) | -18.4 |
| COCOc1ccc(-c2ccc(O)cc2)cc1 | 9.95 |
| COc1ccc(-n2cc[n+](C)c2/C=N\O)cc1 | 0.95 |
| Cc1ccc(S(=O)(=O)N2CCCN(S(=O)(=O)c3ccc(C)cc3)COC2)cc1 | 11.6 |
| Cc1ccc(S(=O)(=O)Nn2c(O)c(C#N)c(-c3ccc(Cl)cc3)c(C#N)c2=O)cc1 | 20.3 |
| CCOC(=O)c1ccc(OC)cc1 | -25.4 |
| CCCCOC(=O)/C(=C\c1cccc(OC)c1)NC(=O)c1ccccc1 | 14.9 |
| C=CCCCN(c1ccc(C(=O)OCC)cc1)S(=O)(=O)c1ccc(C)cc1 | -11.4 |
| CCOc1ccc2nc(NC(=O)CC(C)=O)sc2c1 | -22 |
| CC[O-].CC[O-].O=C([CH-]C(=O)c1ccccc1)CCCCCCCCC(=O)[CH-]C(=O)c1ccccc1.[Ti+4] | -22.3 |
| CC(=O)OC1CCC2(C)C(=CCC3C2CCC2(C)C3CC(Br)C2(O)C(C)=O)C1 (stereo unspecified) | 24.1 |
| CC(=O)OC1CC2CC1C1CC=CC21 (stereo unspecified) | -2 |
| CC(=O)NC(CCCc1ccccc1)C(=O)O (stereo unspecified) | 9 |
| COc1ccc2c(c1)OCCN(C)OC2c1ccccc1 (stereo unspecified) | -4.6 |
| O=C(O)c1nn(-c2ccc(Cl)cc2)c2c1C(=O)c1ccccc1C2=O | 14.7 |
| CC[N+](CC)(CC)Cc1cc2ccccc2n1C(=O)OC | -24.4 |
| CCNc1ccc(C)cc1 | -4.1 |
| COc1cc(NCc2c(O)ccc3ccccc23)c2ncccc2c1 | 28.1 |
| CC(C)c1nc2c([nH]1)c(=O)n(C)c(=O)n2C | 6.85 |
| c1ccc(-c2nsc3ccccc23)cc1 | -6.35 |
| NC(N)=NS(=O)(=O)c1ccc(N)cc1 | 23.9 |
| COC(=O)Cc1c(C(=O)OC)c(O)cc(O)c1C(=O)OC | 5.25 |
| CC(=O)/C(=N/O)C(C)C | -3.5 |
| CC1(C)CC(=O)C(/C(=N/NC(=S)NN)C(=O)Nc2nc3ccc([N+](=O)[O-])cc3s2)C(=O)C1 | 20.2 |
| O=C1CCCC2(c3ccc([N+](=O)[O-])cc3)C1C1C(=O)CCCC12c1ccc([N+](=O)[O-])cc1 (stereo unspecified) | -0.6 |
| CC[N+](C)(CC)CCNc1cc2c(c3c(=O)c4ccccc4sc13)CCCC2 | 99.7 |
| CSc1cc(=O)n(C2OC(CO)C(O)C2O)c(=O)[nH]1 (stereo unspecified) | -5.35 |

---

methodSummary: NCI Yeast Anticancer Drug Screen. Data for the sgs1 mgt1 strain (AID 161);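 note: 0% = growth of cultures given vehicle only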
testParameters: S. cerevisiae sgs1 mgt1 strain, at 50.0 µM, stronger effect = higher value
This is part of a sample that, as a whole, favours compounds with a hit. Of some 79,000 tested, about 15% had one in any assay.
Examples of compounds with documented growth inhibition follow.

| compound | units | growth inhibition |
| --- | --- | --- |
| CC([C@H](c1ccccc1)C1CCC(C(N)=O)(N2CCOCC2)C1)[N+](=O)[O-] (stereo not given in full) | % | 12.3 |
| O=C(/C=C/c1cccc2ccccc12)c1ccccc1Cl | % | 7.65 |
| c1c[nH]c(C2=NCCCCC2)c1 | % | 2.2 |
| CC(=O)CC(OC(C)=O)C1=CCC2C(CC1C)OC(=O)C2C (stereo not given) | % | -22.6 |
| COc1ccc(/C=C/C(=O)N(C)C)cc1 | % | -0.15 |
| COc1ccc(C2(C3NCCC4=C3CCCC4)CC2)cc1 (stereo not given) | % | 32 |
| CNCC(SC)c1ccc(O)c(O)c1 (stereo not given) | % | -20.4 |
| C[CH2][Ge]([CH2]C)[CH2]C.C[CH2][Ge]([Cl])[CH2]C | % | 52.9 |
| C=CCN(CC=C)CCNc1cc(C)nc(/N=C(\N)Nc2ccc(Cl)c(Cl)c2)n1 | % | 96.8 |
| CCN(CC)c1ccc(N=Nc2ccc([N+](=O)[O-])cc2OC(=O)/C=C/c2ccccc2)c(OC(=O)/C=C/c2ccccc2)c1 | % | -12.9 |
